Recorded total protein half-life in vivo values for a group of sequences are listed next.
Assay: total protein half-life in vivo (active degradation + dilution); higher = more stable protein
Conditions: E. coli NCM3722 delta-hslV; growth: N-lim chemostat; doubling time 6 h
Numbers only; they are read as h.

- seq.string: "MSDKFGEGRDPYLYPGLDIMRNRLNIRQQQRLEQAAYEMTALRAATIELGPLVRGLPHLRTIHRQLYQDIFDWAGQLREVDIYQGDTPFCHFAYIEKEGNALMQDLEEEGYLVGLEKAKFVERLAHYYCEINVLHPFRVGSGLAQRIFFEQLAIHAGYQLSWQGIEKEAWNQANQSGAMGDLTALQMIFSKVVSEAGESE"
  value.measured: 4.81

In: Query (sequence): MHPRFQTAFAQLADNLQSALEPILADKYFPALLTGEQVSSLKSATGLDEDALAFALLPLAAACARTPLSNFNVGAIARGVSGTWYFGANMEFIGATMQQTVHAEQSAISHAWLSGEKALAAITVNYTPCGHCRQFMNELNSGLDLRIHLPGREAHALRDYLPDAFGPKDLEIKTLLMDEQDHGYALTGDALSQAAIAAANRSHMPYSKSPSGVALECKDGRIFSGSYAENAAFNPTLPPLQGALILLNLKGYDYPDIQRAVLAEKADAPLIQWDATSATLKALGCHSIDRVLLA [P0ABF6] ; field requested: total protein half-life in vivo
Out: 6

In: Query (sequence): MIDYEVLRFIWWLLVGVLLIGFAVTDGFDMGVGMLTRFLGRNDTERRIMINSIAPHWDGNQVWLITAGGALFAAWPMVYAAAFSGFYVAMILVLASLFFRPVGFDYRSKIEETRWRNMWDWGIFIGSFVPPLVIGVAFGNLLQGVPFNVDEYLRLYYTGNFFQLLNPFGLLAGVVSVGMIITQGATYLQMRTVGELHLRTRATAQVAALVTLVCFALAGVWVMYGIDGYVVKSTMDHYAASNPLNKEVVREAGAWLVNFNNTPILWAIPALGVVLPLLTILTARMDKAAWAFVFSSLTLACIILTAGIAMFPFVMPSSTMMNASLTMWDATSSQLTLNVMTWVAVVLVPIILLYTAWCYWKMFGRITKEDIERNTHSLY [P0ABK2] ; field requested: total protein half-life in vivo
Out: 6.72

In: Query (sequence): MTTKRKPYVRPMTSTWWKKLPFYRFYMLREGTAVPAVWFSIELIFGLFALKNGPEAWAGFVDFLQNPVIVIINLITLAAALLHTKTWFELAPKAANIIVKDEKMGPEPIIKSLWAVTVVATIVILFVALYW [P0A8Q0] ; field requested: total protein half-life in vivo
Out: 5.78

====

Experiment: total protein half-life in vivo (active degradation + dilution); higher = more stable protein
Settings: wild type E. coli NCM3722; growth: P-lim chemostat; doubling time 6 h
Use 6 h as the dividing line for total protein half-life in vivo, with the line itself on the T side and lower values as F.

In: Test whether the sequence MIYIGLPQWSHPKWVRLGITSLEEYARHFNCVEGNTTLYALPKPEVVLRWREQTTDDFRFCFKFPATISHQAALRHCDDLVTEFLTRMSPLAPRIGQYWLQLPATFGPRELPALWHFLDSLPGEFNYGVEVRHPQFFAKGEEEQTLNRGLHQRGVNRVILDSRPVHAARPHSEAIRDAQRKKPKVPVHAVLTATNPLIRFIGSDDMTQNRELFQVWLQKLAQWHQTTTPYLFLHTPDIAQAPELVHTLWEDLRKTLPEIGAVPAIPQQSSLF records total protein half-life in vivo of 6 h or higher.
Out: F

In: Test whether the sequence MKIGIIGAMEEEVTLLRDKIENRQTISLGGCEIYTGQLNGTEVALLKSGIGKVAAALGATLLLEHCKPDVIINTGSAGGLAPTLKVGDIVVSDEARYHDADVTAFGYEYGQLPGCPAGFKADDKLIAAAEACIAELNLNAVRGLIVSGDAFINGSVGLAKIRHNFPQAIAVEMEATAIAHVCHNFNVPFVVVRAISDVADQQSHLSFDEFLAVAAKQSSLMVESLVQKLAHG [P0AF12] records total protein half-life in vivo of 6 h or higher.
Out: F

In: Test whether the sequence MERIVVTLGERSYPITIASGLFNEPASFLPLKSGEQVMLVTNETLAPLYLDKVRGVLEQAGVNVDSVILPDGEQYKSLAVLDTVFTALLQKPHGRDTTLVALGGGVVGDLTGFAAASYQRGVRFIQVPTTLLSQVDSSVGGKTAVNHPLGKNMIGAFYQPASVVVDLDCLKTLPPRELASGLAEVIKYGIILDGAFFNWLEENLDALLRLDGPAMAYCIRRCCELKAEVVAADERETGLRALLNLGHTFGHAIEAEMGYGNWLHGEAVAAGMVMAARTSERLGQFSSAETQRIITLLKRAGLPVNGPREMSAQAYLPHMLRDKKVLAGEMRLILPLAIGKSEVRSGVSHELVLNAIADCQSA records total protein half-life in vivo of 6 h or higher.
Out: F

In: Test whether the sequence MAIDENKQKALAAALGQIEKQFGKGSIMRLGEDRSMDVETISTGSLSLDIALGAGGLPMGRIVEIYGPESSGKTTLTLQVIAAAQREGKTCAFIDAEHALDPIYARKLGVDIDNLLCSQPDTGEQALEICDALARSGAVDVIVVDSVAALTPKAEIEGEIGDSHMGLAARMMSQAMRKLAGNLKQSNTLLIFINQIRMKIGVMFGNPETTTGGNALKFYASVRLDIRRIGAVKEGENVVGSETRVKVVKNKIAAPFKQAEFQILYGEGINFYGELVDLGVKEKLIEKAGAWYSYKGEKIGQGKANATAWLKDNPETAKEIEKKVRELLLSNPNSTPDFSVDDSEGVAETNEDF [P0A7G6] records total protein half-life in vivo of 6 h or higher.
Out: F

In: Test whether the sequence MDSFPAIEIDKVKAWDFRLANINTSECLNVAYGVDANYLDGVGVSITSIVLNNRHINLDFYIIADVYNDGFFQKIAKLAEQNQLRITLYRINTDKLQCLPCTQVWSRAMYFRLFAFQLLGLTLDRLLYLDADVVCKGDISQLLHLGLNGAVAAVVKDVEPMQEKAVSRLSDPELLGQYFNSGVVYLDLKKWADAKLTEKALSILMSKDNVYKYPDQDVMNVLLKGMTLFLPREYNTIYTIKSELKDKTHQNYKKLITESTLLIHYTGATKPWHKWAIYPSVKYYKIALENSPWKDDSPRDAKSIIEFKKRYKHLLVQHHYISGIIAGVCYLCRKYYRK records total protein half-life in vivo of 6 h or higher.
Out: F

====

Assay: total protein half-life in vivo (active degradation + dilution); higher = more stable protein
Conditions: E. coli NCM3722 delta-clpP; growth: N-lim chemostat; doubling time 6 h
assay.readout: total protein half-life in vivo (h)
Numbers only; they are read as h.

- seq.string: "MKKTAIAIAVALAGFATVAQAAPKDNTWYTGAKLGWSQYHDTGFINNNGPTHENQLGAGAFGGYQVNPYVGFEMGYDWLGRMPYKGSVENGAYKAQGVQLTAKLGYPITDDLDIYTRLGGMVWRADTKSNVYGKNHDTGVSPVFAGGVEYAITPEIATRLEYQWTNNIGDAHTIGTRPDNGMLSLGVSYRFGQGEAAPVVAPAPAPAPEVQTKHFTLKSDVLFNFNKATLKPEGQAALDQLYSQLSNLDPKDGSVVVLGYTDRIGSDAYNQGLSERRAQSVVDYLISKGIPADKISARGMGESNPVTGNTCDNVKQRAALIDCLAPDRRVEIEVKGIKDVVTQPQA [P0A910]"
  unit.name: "h"
  total protein half-life in vivo: 6.96
- seq.string: "MTTPTFDTIEAQASYGIGLQVGQQLSESGLEGLLPEALVAGIADALEGKHPAVPVDVVHRALREIHERADAVRRQRFQAMAAEGVKYLEENAKKEGVNSTESGLQFRVINQGEGAIPARTDRVRVHYTGKLIDGTVFDSSVARGEPAEFPVNGVIPGWIEALTLMPVGSKWELTIPQELAYGERGAGASIPPFSTLVFEVELLEIL [P0A9L3]"
  unit.name: "h"
  total protein half-life in vivo: 4.54

--- query ---
In: Query (sequence): MRKIALILAMLLIPCVSFAGLLGSSSSTTPVSKEYKQQLMGSPVYIQIFKEERTLDLYVKMGEQYQLLDSYKICKYSGGLGPKQRQGDFKSPEGFYSVQRNQLKPDSRYYKAINIGFPNAYDRAHGYEGKYLMIHGDCVSIGCYAMTNQGIDEIFQFVTGALVFGQPSVQVSIYPFRMTDANMKRHKYSNFKDFWEQLKPGYDYFEQTRKPPTVSVVNGRYVVSKPLSHEVVQPQLASNYTLPEAK [P0AA99] ; field requested: total protein half-life in vivo
Out: 0.657

====

Recorded total protein half-life in vivo values for a group of sequences are listed next.
Test: total protein half-life in vivo (active degradation + dilution); higher = more stable protein
Details: E. coli NCM3722 delta-clpP delta-lon delta-hslV; growth: N-lim chemostat; doubling time 6 h
Numbers only; they are read as h.

- seq.string: "MSLFHLIAPSGYCIKQHAALRGIQRLTDAGHQVNNVEVIARRCERFAGTETERLEDLNSLARLTTPNTIVLAVRGGYGASRLLADIDWQALVARQQHDPLLICGHSDFTAIQCGLLAHGNVITFSGPMLVANFGADELNAFTEHHFWLALRNETFTIEWQGEGPTCRAEGTLWGGNLAMLISLIGTPWMPKIENGILVLEDINEHPFRVERMLLQLYHAGILPRQKAIILGSFSGSTPNDYDAGYNLESVYAFLRSRLSIPLITGLDFGHEQRTVTLPLGAHAILNNTREGTQLTISGHPVLKM"
  unit.name: "h"
  total protein half-life in vivo: 4.96
- seq.string: "MPALDLIRPSVTAMRVIASVNADFARELKLPPHIRSLGLISADSDDVTYIAADEATKQAMVEVVYGRSLYAGAAHGPSPTAGEVLIMLGGPNPAEVRAGLDAMIAHIENGAAFQWANDAQDTAFLAHVVSRTGSYLSSTAGITLGDPMAYLVAPPLEATYGIDAALKSADVQLATYVPPPSETNYSAAFLTGSQAACKAACNAFTDAVLEIARNPIQRA"
  unit.name: "h"
  total protein half-life in vivo: 6.04

--- query ---
In: Query (sequence): MTAPLTLLIVEDETPLAEMHAEYIRHIPGFSQILLAGNLAQARMMIERFKPGLILLDNYLPDGRGINLLHELVQAHYPGDVVFTTAASDMETVSEAVRCGVFDYLIKPIAYERLGQTLTRFRQRKHMLESIDSASQKQIDEMFNAYARGEPKDELPTGIDPLTLNAVRKLFKEPGVQHTAETVAQALTISRTTARRYLEYCASRHLIIAEIVHGKVGRPQRIYHSG [P0AEF4] ; field requested: total protein half-life in vivo
Out: 4.85
